Taken from patent US20230303994.

Target: pre-pro-insulin glargine
MEASUREMENT_LABEL: Purity Insulin Glargine (area %)
Expressed in area %, but write only the number.

Reference set (3 entries):
Entry under review: trypsin variant SEQ ID NO: 82 (protein) IVGGYTCAANSIPYQVSLNSGSHRCGGSLINSQWVVSAAHCYKPRIQVRLGEHNIHVLEGNEQFINAAKIITHPNFNPNTLDNDIMLIKLSSPATLNSHVATVSLPRSCAAAGTECLISGWGNTCSSGSSMPSLLQCLKAPVLSDSSCKSSYPGQITGNMICVGFLEGGKDACQGDSGGPVVCNGQLQGIVSSGYGCAQKNKPGVYTKVCNYVNWIQQTIAAN . Reported Purity Insulin Glargine?
83.8

Entry under review: trypsin variant SEQ ID NO: 81 (protein) IVGGYTCAANSIPYQVSLNSGSHRCGGSLINSQWVVSAAHCYKSRIQVRLGEHNIHVLEGNEQFINAAKIITHPNFNPNTLDNDIMLIKLSSPATLNSHVATVSLPTSCAAAGTECLISGWGNTASSGSSMPSLLQCLKAPVLSDSSCKSSYPGQITGNMICVGFLEGGKDACQGDSGGPVVCNGQLQGIVSSGYGCAQKNKPGVYTKVCNYVNWIQQTIAAN . Reported Purity Insulin Glargine?
89.7

Entry under review: trypsin variant SEQ ID NO: 107 (protein) IVGGYTCAANSIPYQVSLNSGSHRCGGSLINSQWVVSAAHCYKPRIQVRLGEHNIHVLEGNEQFINAAKIITHPNFNPNTLDNDIMLIKLSSPATLNSHVATVSLPTSCAAAGTECLISGWGNTCSSGSSMPSLLQCLKAPVLSDSSCKSSYPGQITGNMICVGFLEGGADACQGDSGGPVVCNGQLQGIVSSGYGCAQKNKPGVYTKVCNYVNWIQQTIAAN . Reported Purity Insulin Glargine?
88.1

Next:
Entry under review: trypsin variant SEQ ID NO: 77 (protein) IVGGYTCAANSIPYQVSLNSGSHRCGGSLINSQWVVSAAHCYKPRIQVRLGEHNIHVLEGNEQFINAAKIITHPNFNGNTLDNDIMLIKLSSPATLNSHVATVSLPTSCAAAGTECLISGWGNTCSSGSSMPSLLQCLKAPVLSDSSCKSSYPGQITGNMICVGFLEGGKDACQGDSGGPVVCNGQLQGIVSSGYGCAQKNKPGVYTKVCNYVNWIQQTIAAN . Reported Purity Insulin Glargine?
88.2

Entry under review: trypsin variant SEQ ID NO: 94 (protein) IVGGYTCAANSIPYQVSLNSGSHRCGGSLINSQWVVSAAHCYKPRIQVRLGEHNIHVLEGNEQFINAAKIITHPNFNGNTLDNDIMLIKLSSPATLNSNVATVSLPRSCAAAGTECLISGWGNTCSSGSSMPSLLQCLKAPVLSDSSCKSSYPGQITGNMICVGFLEGGADACQGDSGGPVVCNGQLQGIVSSGYGCAQKNKPGVYTKVCNYVNWIQQTIAAN . Reported Purity Insulin Glargine?
85.2
